# Test system: DU-145
# experiment-notes: Human cancer cell line minipanel, Prostate DU-145
# Assay type: cell-based
Criterion: GI50 Prostate DU-145 strictly less than 0.05 µg/mL. Met: fulfilled. Not met: not fulfilled.

Below are worked cases with known answers.
is_below(GI50 Prostate DU-145, 0.05 µg/mL) for O=C1N[C@@H]2C(=C[C@H](O)[C@H]3OP(=O)([O-])O[C@H]32)c2cc3c(cc21)OCO3.[Na+] [compound 10, Sodium 7-Deoxy-narcistatin] ? not fulfilled

is_below(GI50 Prostate DU-145, 0.05 µg/mL) for O=C1N[C@H]2[C@@H]3OP(=O)([O-])O[C@@H]3[C@@H](O)C[C@@H]2c2cc3c(cc21)OCO3.[K+] (relative stereo) [11b] ? not fulfilled

is_below(GI50 Prostate DU-145, 0.05 µg/mL) for O=C1N[C@H]2[C@@H]3OP(=O)([O-])O[C@@H]3[C@@H](O)C[C@@H]2c2cc3c(c(O)c21)OCO3.[K+] (relative stereo) [12b, Potassium trans-dihydro-narcistatin] ? not fulfilled

is_below(GI50 Prostate DU-145, 0.05 µg/mL) for O=C1N[C@H]2[C@H](O)[C@H](O)[C@@H](O)C[C@@H]2c2cc3c(c(O)c21)OCO3 (relative stereo) [1a, trans-dihydronarciclasine] ? fulfilled

is_below(GI50 Prostate DU-145, 0.05 µg/mL) for O=C1N[C@@H]2C(=C[C@H](O)[C@H]3OP(=O)([O-])O[C@H]32)c2cc3c(cc21)OCO3.[K+] [10b, Potassium 7-Deoxy-narcistatin] ? not fulfilled

is_below(GI50 Prostate DU-145, 0.05 µg/mL) for O=C1N[C@H]2[C@@H]3OP(=O)([O-])O[C@@H]3[C@@H](O)C[C@@H]2c2cc3c(cc21)OCO3.[Na+] (relative stereo) [compound 11, Sodium 7-Deoxy-trans-dihydro-narcistatin] ? not fulfilled

Further cases:
is_below(GI50 Prostate DU-145, 0.05 µg/mL) for O=C1N[C@@H]2C(=C[C@H](O)[C@H]3OP(=O)([O-])O[C@H]32)c2cc3c(cc21)OCO3.[Li+] [10a, Lithium 7-Deoxy-narcistatin] ? not fulfilled

is_below(GI50 Prostate DU-145, 0.05 µg/mL) for O=C1N[C@H]2[C@@H]3OP(=O)([O-])O[C@@H]3[C@@H](O)C[C@@H]2c2cc3c(cc21)OCO3.[Li+] (relative stereo) [11a] ? not fulfilled

is_below(GI50 Prostate DU-145, 0.05 µg/mL) for O=C1N[C@H]2[C@@H]3OP(=O)([O-])O[C@@H]3[C@@H](O)C[C@@H]2c2cc3c(c(O)c21)OCO3.[Li+] (relative stereo) [12a, Lithium trans-dihydro-narcistatin] ? not fulfilled

is_below(GI50 Prostate DU-145, 0.05 µg/mL) for O=C1N[C@H]2[C@H](O)[C@H](O)[C@@H](O)C[C@@H]2c2cc3c(cc21)OCO3 (relative stereo) [1c, 7-deoxy-trans-dihydronarciclasine] ? fulfilled

is_below(GI50 Prostate DU-145, 0.05 µg/mL) for O=C1N[C@H]2[C@@H]3OP(=O)([O-])O[C@@H]3[C@@H](O)C[C@@H]2c2cc3c(c(O)c21)OCO3.[Na+] (relative stereo) [compound 12, Sodium trans-dihydro-narcistatin] ? not fulfilled

Data origin, for the record: patent US7709643B2
